- assay procedure: Pharmacokinetic profile after single oral, intranasal and intravenous betahistine in beagle dogs, Example 5
- Format: in vivo
- condition summary: male, beagle, dog, in vivo, inhaled or intranasal, 15.8 mg/kg, AUC(0-6)
- Description: In this study, the pharmacokinetic profile of betahistine was evaluated after a single dose administration of betahistine in male and female beagle dogs (age 5-7 months; weight of 5-11 kg, within a range of 3 kg for each sex) for three routes of administration: oral, intranasal, and intravenous. On Day 1 of the study, betahistine (BH) was delivered orally at a dose of 12 mg/kg, 24 mg/kg, or 48 mg/kg. Each treatment group comprised 8 animals (4 males and 4 females). […]
quantity: AUC(0-t) (ng·h/mL)
Lab book: enter the figure in ng·h/mL, no units written.

Return reported AUC(0-t). Input molecule: CNCCc1ccccn1
194

Return reported AUC(0-t). Input molecule: O=C(O)Cc1ccccn1
10200

* * *

- assay procedure: Pharmacokinetic profile after single oral, intranasal and intravenous betahistine in beagle dogs, Example 5
- Format: in vivo
- condition summary: both sexes, beagle, dog, in vivo, po, 12 mg/kg, Betahistine Plasma Concentration
quantity: concentration at 3 h (ng/mL)
Lab book: enter the figure in ng/mL, no units written.

Return reported concentration at 3 h. Input molecule: CNCCc1ccccn1
0.0181

* * *

- assay procedure: Pharmacokinetic profile after single oral, intranasal and intravenous betahistine in beagle dogs, Example 5
- Assay type: in vivo
- condition summary: female, beagle, dog, in vivo, po, 24 mg/kg, Betahistine Plasma Concentration
- Method: In this study, the pharmacokinetic profile of betahistine was evaluated after a single dose administration of betahistine in male and female beagle dogs (age 5-7 months; weight of 5-11 kg, within a range of 3 kg for each sex) for three routes of administration: oral, intranasal, and intravenous. On Day 1 of the study, betahistine (BH) was delivered orally at a dose of 12 mg/kg, 24 mg/kg, or 48 mg/kg. Each treatment group comprised 8 animals (4 males and 4 females). […]
quantity: concentration at 1 h (ng/mL)
Lab book: enter the figure in ng/mL, no units written.

Return reported concentration at 1 h. Input compound: CNCCc1ccccn1
36.8

* * *

- assay procedure: Pharmacokinetic profile after single oral, intranasal and intravenous betahistine in beagle dogs, Example 5
- Format: in vivo
- condition summary: female, beagle, dog, in vivo, po, 24 mg/kg, AUC(0-6)
quantity: AUC(0-t) (ng·h/mL)
Lab book: enter the figure in ng·h/mL, no units written.

Return reported AUC(0-t). Input compound: CNCCc1ccccn1
26.2

* * *

- assay procedure: Pharmacokinetic profile after single oral, intranasal and intravenous betahistine in beagle dogs, Example 5
- Assay type: in vivo
- condition summary: female, beagle, dog, in vivo, po, 12 mg/kg, Betahistine Plasma Concentration
quantity: concentration at 3 h

Return reported concentration at 3 h. Input molecule: CNCCc1ccccn1 [betahistine]
0 ng/mL

* * *

- assay procedure: Pharmacokinetic profile after single oral, intranasal and intravenous betahistine in beagle dogs, Example 5
- Assay type: in vivo
- condition summary: female, beagle, dog, in vivo, iv, 0.44 mg/kg, Betahistine Plasma Concentration
quantity: concentration at 1 h
Remember to put the unit after the number in your answer.

Return reported concentration at 1 h. Input compound: CNCCc1ccccn1
0.268 ng/mL

* * *

- assay procedure: Pharmacokinetic profile after single oral, intranasal and intravenous betahistine in beagle dogs, Example 5
- Format: in vivo
- condition summary: both sexes, beagle, dog, in vivo, po, 24 mg/kg, Betahistine Plasma Concentration
quantity: concentration at 0 h (ng/mL)
Lab book: enter the figure in ng/mL, no units written.

Return reported concentration at 0 h. Input compound: CNCCc1ccccn1
0

* * *

- assay procedure: Pharmacokinetic profile after single oral, intranasal and intravenous betahistine in beagle dogs, Example 5
- Assay type: in vivo
- condition summary: female, beagle, dog, in vivo, po, 48 mg/kg, Betahistine Plasma Concentration
quantity: concentration at 5 min (ng/mL)
Lab book: enter the figure in ng/mL, no units written.

Return reported concentration at 5 min. Input molecule: CNCCc1ccccn1 [betahistine]
9.87

* * *

- assay procedure: Pharmacokinetic profile after single oral, intranasal and intravenous betahistine in beagle dogs, Example 5
- Format: in vivo
- condition summary: female, beagle, dog, in vivo, po, 24 mg/kg, Betahistine Plasma Concentration
quantity: concentration at 6 h (ng/mL)
Lab book: enter the figure in ng/mL, no units written.

Return reported concentration at 6 h. Input molecule: CNCCc1ccccn1 [betahistine]
0.342

* * *

- assay procedure: Pharmacokinetic profile after single oral, intranasal and intravenous betahistine in beagle dogs, Example 5
- Assay type: in vivo
- condition summary: male, beagle, dog, in vivo, iv, 0.44 mg/kg, Betahistine Plasma Concentration
- Experimental: In this study, the pharmacokinetic profile of betahistine was evaluated after a single dose administration of betahistine in male and female beagle dogs (age 5-7 months; weight of 5-11 kg, within a range of 3 kg for each sex) for three routes of administration: oral, intranasal, and intravenous. On Day 1 of the study, betahistine (BH) was delivered orally at a dose of 12 mg/kg, 24 mg/kg, or 48 mg/kg. Each treatment group comprised 8 animals (4 males and 4 females). […]
quantity: concentration at 1 h (ng/mL)
Lab book: enter the figure in ng/mL, no units written.

Return reported concentration at 1 h. Input compound: CNCCc1ccccn1 [betahistine]
0.349

* * *

- assay procedure: Pharmacokinetic profile after single oral, intranasal and intravenous betahistine in beagle dogs, Example 5
- Format: in vivo
- condition summary: male, beagle, dog, in vivo, inhaled or intranasal, 5 mg/kg, AUC(0-t)
quantity: AUC(0-t) (ng·h/mL)
Lab book: enter the figure in ng·h/mL, no units written.

Return reported AUC(0-t). Input molecule: CNCCc1ccccn1 [betahistine]
182

* * *

- assay procedure: Pharmacokinetic profile after single oral, intranasal and intravenous betahistine in beagle dogs, Example 5
- Assay type: in vivo
- condition summary: male, beagle, dog, in vivo, iv, 0.44 mg/kg, Betahistine Plasma Concentration
quantity: concentration at 0.333 h

Return reported concentration at 0.333 h. Input molecule: CNCCc1ccccn1
8.06 ng/mL

* * *

- assay procedure: Pharmacokinetic profile after single oral, intranasal and intravenous betahistine in beagle dogs, Example 5
- Assay type: in vivo
- condition summary: female, beagle, dog, in vivo, po, 24 mg/kg
quantity: Tmax
Remember to put the unit after the number in your answer.

Return reported Tmax. Input compound: CNCCc1ccccn1 [betahistine]
1 h

* * *

- assay procedure: Pharmacokinetic profile after single oral, intranasal and intravenous betahistine in beagle dogs, Example 5
- Assay type: in vivo
- condition summary: male, beagle, dog, in vivo, po, 48 mg/kg, Betahistine Plasma Concentration
quantity: concentration at 3 h
Remember to put the unit after the number in your answer.

Return reported concentration at 3 h. Input compound: CNCCc1ccccn1
3 ng/mL

* * *

- assay procedure: Toxicokinetic assessment of plasma betahistine and 2-PAA after intranasal betahistine (LC-MS/MS), Example 2
- condition summary: both, beagle, dog, inhaled or intranasal
quantity: Tmax

Return reported Tmax. Input molecule: CNCCc1ccccn1
5 min

* * *

- assay procedure: Pharmacokinetic profile after single oral, intranasal and intravenous betahistine in beagle dogs, Example 5
- Assay type: in vivo
- condition summary: male, beagle, dog, in vivo, po, 48 mg/kg, AUC(0-6)
quantity: AUC(0-t) (ng·h/mL)
Lab book: enter the figure in ng·h/mL, no units written.

Return reported AUC(0-t). Input molecule: CNCCc1ccccn1 [betahistine]
131

* * *

- assay procedure: Pharmacokinetic profile after single oral, intranasal and intravenous betahistine in beagle dogs, Example 5
- Assay type: in vivo
- condition summary: both sexes, beagle, dog, in vivo, iv, 0.44 mg/kg, Betahistine Plasma Concentration
quantity: concentration at 3 h (ng/mL)
Lab book: enter the figure in ng/mL, no units written.

Return reported concentration at 3 h. Input molecule: CNCCc1ccccn1
0.0878
